Catalogue of inhibition at 1 µM values
- test.target: panel of 255 wild-type kinases (Homo sapiens)
- Sequence (P43403 whole entry): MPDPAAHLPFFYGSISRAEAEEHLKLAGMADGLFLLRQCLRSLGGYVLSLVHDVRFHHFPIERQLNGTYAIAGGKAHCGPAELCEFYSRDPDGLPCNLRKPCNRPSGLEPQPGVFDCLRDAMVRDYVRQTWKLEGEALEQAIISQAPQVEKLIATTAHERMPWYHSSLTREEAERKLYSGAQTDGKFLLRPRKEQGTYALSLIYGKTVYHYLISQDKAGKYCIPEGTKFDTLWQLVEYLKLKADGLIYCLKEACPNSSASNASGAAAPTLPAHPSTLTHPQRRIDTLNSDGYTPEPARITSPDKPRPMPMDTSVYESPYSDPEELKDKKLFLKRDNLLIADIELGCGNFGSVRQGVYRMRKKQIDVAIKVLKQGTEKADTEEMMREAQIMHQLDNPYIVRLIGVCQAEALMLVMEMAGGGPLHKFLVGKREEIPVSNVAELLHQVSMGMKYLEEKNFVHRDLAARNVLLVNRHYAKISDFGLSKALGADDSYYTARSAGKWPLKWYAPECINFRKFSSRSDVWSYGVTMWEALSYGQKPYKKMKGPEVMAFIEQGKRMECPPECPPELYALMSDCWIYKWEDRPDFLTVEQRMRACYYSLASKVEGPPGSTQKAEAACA
- assay.method.text: Kinase panel profiling at 1 µmol/L (MSA or IMAP), percentage inhibition
- Type: biochemical
- assay.setup: kinase ZAP70; 1 µmol/L single concentration; read-out: %-inhibition at 1 µmol/L, ZAP70
property.name: inhibition at 1 µM (%)

compound | property.name | value.measured
CCc1nc(C(N)=O)c(Nc2ccc(N3CCC(N4CCN(C)CC4)CC3)c(OC)c2)nc1NC1CCOCC1 [gilteritinib] | inhibition at 1 µM | 46
COC(=O)N[C@@H](C)CNc1nccc(-c2cn(C(C)C)nc2-c2cc(Cl)cc(NS(C)(=O)=O)c2F)n1 [encorafenib] | inhibition at 1 µM | 0.195
CCN1CCN(c2ccc(Nc3cc(N(C)C(=O)Nc4c(Cl)c(OC)cc(OC)c4Cl)ncn3)cc2)CC1 [infigratinib] | inhibition at 1 µM | -2.77
Cn1cnc2c(F)c(Nc3ccc(Br)cc3Cl)c(C(=O)NOCCO)cc21 [selumetinib] | inhibition at 1 µM | -1.11
COc1cc2ncnc(Nc3ccc(F)c(Cl)c3)c2cc1NC(=O)/C=C/CN1CCCCC1 [dacomitinib] | inhibition at 1 µM | -4
C[C@H](Nc1ncnc2nc[nH]c12)c1cc2cccc(Cl)c2c(=O)n1-c1ccccc1 [duvelisib] | inhibition at 1 µM | 2
CO[C@]1(C(=O)N[C@@H](C)c2ccc(-n3cc(F)cn3)nc2)CC[C@H](c2nc(C)cc(Nc3cc(C)[nH]n3)n2)CC1 [pralsetinib] | inhibition at 1 µM | 9
CN1CCN(c2ccc(C(=O)Nc3n[nH]c4ccc(Cc5cc(F)cc(F)c5)cc34)c(NC3CCOCC3)c2)CC1 [entrectinib] | inhibition at 1 µM | 2.19
CCn1c(=O)c(-c2cc(NC(=O)Nc3ccccc3)c(F)cc2Br)cc2cnc(NC)cc21 [ripretinib] | inhibition at 1 µM | -8
Cn1cnc2c(F)c(Nc3ccc(Br)cc3F)c(C(=O)NOCCO)cc21 [binimetinib] | inhibition at 1 µM | -1.09
FC(F)(F)c1ccc(CNc2ccc(Cc3c[nH]c4ncc(Cl)cc34)cn2)cn1 [pexidartinib] | inhibition at 1 µM | -7
Cn1cc(-c2cc3c(N4CCN(c5ncc([C@@](C)(N)c6ccc(F)cc6)cn5)CC4)ncnn3c2)cn1 [avapritinib] | inhibition at 1 µM | 13
Cc1cc(Nc2ncnc3ccc(NC4=NC(C)(C)CO4)cc23)ccc1Oc1ccn2ncnc2c1 [tucatinib] | inhibition at 1 µM | 3.36
C=CC(=O)N1CCC([C@@H]2CCNc3c(C(N)=O)c(-c4ccc(Oc5ccccc5)cc4)nn32)CC1 [zanubrutinib] | inhibition at 1 µM | 2
C[C@H]1Oc2cc(cnc2N)-c2c(nn(C)c2C#N)CN(C)C(=O)c2ccc(F)cc21 [lorlatinib] | inhibition at 1 µM | 6
Cc1nc(NC(=O)N2CCC[C@H]2C(N)=O)sc1-c1ccnc(C(C)(C)C(F)(F)F)c1 [alpelisib] | inhibition at 1 µM | 1.11
